Each recorded value in this set is attributed to patent US6410546B1.

# assay_info: in vivo
# Design: species or system rats
# stated_conditions: rat
# From the text: In rats, for example, the concentration of MKC-442 in the brain was 100% of that seen in the plasma.
measurement_kind: Kp
Hey, just send me the number, nothing else.

Q: Could you please provide reported Kp for CCOCn1c(Cc2ccccc2)c(C(C)C)c(=O)[nH]c1=O ? Thanks!
A: 1
